assay: Inhibition of Pho85p

moleculeSmiles: CC(C)n1cnc2/c(=N/c3cccc(Cl)c3)nc(NCCO)[nH]c21
resultUnits: nM
IC50: 2000

###

Record: ΔTm reported on Calcium/calmodulin-dependent protein kinase type IV (Homo sapiens).

molecule: COc1cc(C[C@H]2C(=O)OC[C@@H]2Cc2ccc(OC)c(OC)c2)ccc1O
subjectOfTest: Calcium/calmodulin-dependent protein kinase type IV (Homo sapiens)
ΔTm [°C]: -0.5
//
molecule: Cn1cc(C2=C(c3cn(CCCN)c4ccccc34)C(=O)NC2=O)c2ccccc21
subjectOfTest: Calcium/calmodulin-dependent protein kinase type IV (Homo sapiens)
ΔTm [°C]: 1.7
//
molecule: CC(C)(C)c1cc(C=C2C(=O)C=CC2=O)cc(C(C)(C)C)c1O
subjectOfTest: Calcium/calmodulin-dependent protein kinase type IV (Homo sapiens)
ΔTm [°C]: -1.5
//
molecule: COc1cc(OC)c(/C=C2\C(=O)Nc3ccccc32)c(OC)c1
subjectOfTest: Calcium/calmodulin-dependent protein kinase type IV (Homo sapiens)
ΔTm [°C]: -0.1
//
molecule: O=[N+]([O-])c1ccc(-c2nc(-c3ccc(F)cc3)c(-c3ccncc3)[nH]2)cc1
subjectOfTest: Calcium/calmodulin-dependent protein kinase type IV (Homo sapiens)
ΔTm [°C]: -0.2
//
molecule: COC1=C2C[C@@H](C)C[C@H](OC)[C@H](O)[C@@H](C)/C=C(\C)[C@H](OC(N)=O)[C@@H](OC)/C=C\C=C(/C)C(=O)NC(=CC1=O)C2=O
subjectOfTest: Calcium/calmodulin-dependent protein kinase type IV (Homo sapiens)
ΔTm [°C]: 0
//
molecule: COc1ccc(COc2ccc(Cc3cnc(N)nc3N)cc2OC)cc1
subjectOfTest: Calcium/calmodulin-dependent protein kinase type IV (Homo sapiens)
ΔTm [°C]: 0
//
molecule: C/C(O)=C(\C#N)C(=O)Nc1cc(Br)ccc1Br
subjectOfTest: Calcium/calmodulin-dependent protein kinase type IV (Homo sapiens)
ΔTm [°C]: 0.1
//
molecule: Nc1ncnc2c1c(I)cn2[C@@H]1O[C@H](CO)[C@@H](O)[C@H]1O
subjectOfTest: Calcium/calmodulin-dependent protein kinase type IV (Homo sapiens)
ΔTm [°C]: 2.5
//
molecule: Clc1ccc(Nc2nnc(Cc3ccncc3)c3ccccc23)cc1
subjectOfTest: Calcium/calmodulin-dependent protein kinase type IV (Homo sapiens)
ΔTm [°C]: 1.9
//
molecule: Cc1nc(N)sc1-c1ccnc(Nc2cccc([N+](=O)[O-])c2)n1
subjectOfTest: Calcium/calmodulin-dependent protein kinase type IV (Homo sapiens)
ΔTm [°C]: 1.8
//
molecule: CC(C)c1nn(-c2c(Cl)cccc2Cl)c2nc(Cc3ccc(OCCO)cc3)[nH]c(=O)c12
subjectOfTest: Calcium/calmodulin-dependent protein kinase type IV (Homo sapiens)
ΔTm [°C]: -3.4
//
molecule: NC1=NC(=O)/C(=C2\CCNC(=O)c3[nH]c(Br)cc32)N1
subjectOfTest: Calcium/calmodulin-dependent protein kinase type IV (Homo sapiens)
ΔTm [°C]: 0.1
//
molecule: CCCCc1c(-c2ccc(O)cc2)[nH]c2nccnc12
subjectOfTest: Calcium/calmodulin-dependent protein kinase type IV (Homo sapiens)
ΔTm [°C]: 0.4
//
molecule: NCCNS(=O)(=O)c1cccc2c(Cl)cccc12
subjectOfTest: Calcium/calmodulin-dependent protein kinase type IV (Homo sapiens)
ΔTm [°C]: -0.1
//
molecule: C[C@@H]1C[C@H]2O[C@@H]2/C=C\C=C\C(=O)Cc2c(Cl)c(O)cc(O)c2C(=O)O1
subjectOfTest: Calcium/calmodulin-dependent protein kinase type IV (Homo sapiens)
ΔTm [°C]: -0.1
//
molecule: COc1cc2ncnc(Nc3cccc(Br)c3)c2cc1OC
subjectOfTest: Calcium/calmodulin-dependent protein kinase type IV (Homo sapiens)
ΔTm [°C]: 0.1
//
molecule: COc1nccc(-c2c(-c3ccc(F)cc3)ncn2[C@H]2CC[C@H](O)CC2)n1
subjectOfTest: Calcium/calmodulin-dependent protein kinase type IV (Homo sapiens)
ΔTm [°C]: 0.2
//
molecule: O=c1c(O)c(-c2ccc(O)c(O)c2)oc2cc(O)cc(O)c12
subjectOfTest: Calcium/calmodulin-dependent protein kinase type IV (Homo sapiens)
ΔTm [°C]: 6.7
//
molecule: C#Cc1cccc(Nc2ncnc3cc(OCCOC)c(OCCOC)cc23)c1
subjectOfTest: Calcium/calmodulin-dependent protein kinase type IV (Homo sapiens)
ΔTm [°C]: 0.1
//
molecule: CN1CCc2[nH]c(=S)c(C#N)c(-c3cccs3)c2C1
subjectOfTest: Calcium/calmodulin-dependent protein kinase type IV (Homo sapiens)
ΔTm [°C]: 1.9
//
molecule: COc1ccc(S(=O)(=O)N(CCO)c2ccccc2CN(C)C/C=C/c2ccc(Cl)cc2)cc1
subjectOfTest: Calcium/calmodulin-dependent protein kinase type IV (Homo sapiens)
ΔTm [°C]: -0.3
//
molecule: Cc1nc2sccn2c(=O)c1CCN1CCC(=C(c2ccccc2)c2ccc(F)cc2)CC1
subjectOfTest: Calcium/calmodulin-dependent protein kinase type IV (Homo sapiens)
ΔTm [°C]: -0.2
//
molecule: O=C1Nc2cc(Br)ccc2/C1=C1/Nc2ccccc2/C1=N\O
subjectOfTest: Calcium/calmodulin-dependent protein kinase type IV (Homo sapiens)
ΔTm [°C]: -0.5
//
molecule: CN(C)CC1CCn2c(c(C3=C(c4c[nH]c5ccccc45)C(=O)NC3=O)c3ccccc32)C1 (stereo not drawn)
subjectOfTest: Calcium/calmodulin-dependent protein kinase type IV (Homo sapiens)
ΔTm [°C]: -0.2
//
molecule: O=C1NC(=O)C(c2cn(CCCn3ccnc3)c3ccccc23)=C1Nc1ccccc1
subjectOfTest: Calcium/calmodulin-dependent protein kinase type IV (Homo sapiens)
ΔTm [°C]: -0.7
//
molecule: CN(c1cccnc1)c1cc2c(Nc3ccc(F)c(Cl)c3)c(C#N)cnc2cn1
subjectOfTest: Calcium/calmodulin-dependent protein kinase type IV (Homo sapiens)
ΔTm [°C]: -3.4
//
molecule: O=C1Nc2ccc(I)cc2/C1=C\c1cc(Br)c(O)c(Br)c1
subjectOfTest: Calcium/calmodulin-dependent protein kinase type IV (Homo sapiens)
ΔTm [°C]: 0.2
